- experiment.notes: recombinant UMI read abundance after kanamycin selection (control-corrected) (log10(CPM+1)); higher = more efficient recombination; extreme values may be limits of the assay; sequences stand for … in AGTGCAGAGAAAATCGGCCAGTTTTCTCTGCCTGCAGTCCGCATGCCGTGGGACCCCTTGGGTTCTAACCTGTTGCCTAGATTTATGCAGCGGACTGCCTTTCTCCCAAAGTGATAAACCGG…AGGTTGGTTTCACT; site = the 11-nt donor
recombinant UMI read abundance (log10) values for the sequences below.
metric.name: recombinant UMI read abundance (log10)

[[record]]
item_sequence = "TGCACATCATGGACCGGTTTTCCCGGTAATCCGTATTTGCC (site TGCACATCTGG)"
metric_name = "recombinant UMI read abundance (log10)"
readout_number = 0.35

[[record]]
item_sequence = "GCGAAAACATGGACCGGTTTTCCCGGTAATCCGTATTTGCT (site GCGTAAACTAG)"
metric_name = "recombinant UMI read abundance (log10)"
readout_number = 1.73

[[record]]
item_sequence = "CCTCAAGCATGGACCGGTTTTCCCGGTAATCCGTATTTGAT (site CCTAAAGCTAT)"
metric_name = "recombinant UMI read abundance (log10)"
readout_number = 0

[[record]]
item_sequence = "GGATAGTCATGGACCGGTTTTCCCGGTAATCCGTATTTGCC (site GGATAGCCTGG)"
metric_name = "recombinant UMI read abundance (log10)"
readout_number = 0

[[record]]
item_sequence = "ATGCAGGCATGGACCGGTTTTCCCGGTAATCCGTATTTGGC (site ATGGAGGCTGC)"
metric_name = "recombinant UMI read abundance (log10)"
readout_number = 0

[[record]]
item_sequence = "AGGAAGGCATGGACCGGTTTTCCCGGTAATCCGTATTTGCA (site AGGAAGTCTTG)"
metric_name = "recombinant UMI read abundance (log10)"
readout_number = 1.82

[[record]]
item_sequence = "CCGTGAGCATGGACCGGTTTTCCCGGTAATCCGTATTTGTG (site CCGTCAGCTCA)"
metric_name = "recombinant UMI read abundance (log10)"
readout_number = 0

[[record]]
item_sequence = "CCCTTGCCATGGACCGGTTTTCCCGGTAATCCGTATTTGCC (site CCCTGGCCTGG)"
metric_name = "recombinant UMI read abundance (log10)"
readout_number = 0

[[record]]
item_sequence = "CTCTACACATGGACCGGTTTTCCCGGTAATCCGTATTTGCT (site CTCTACCCTAG)"
metric_name = "recombinant UMI read abundance (log10)"
readout_number = 0

[[record]]
item_sequence = "CAGAATACATGGACCGGTTTTCCCGGTAATCCGTATTTGCA (site CAGAATACTTG)"
metric_name = "recombinant UMI read abundance (log10)"
readout_number = 2.15

[[record]]
item_sequence = "TAATTGACATGGACCGGTTTTCCCGGTAATCCGTATTTGCT (site TAATTGACTAG)"
metric_name = "recombinant UMI read abundance (log10)"
readout_number = 2.35

[[record]]
item_sequence = "CTGGAAACATGGACCGGTTTTCCCGGTAATCCGTATTTGTA (site CTGGAAACTTA)"
metric_name = "recombinant UMI read abundance (log10)"
readout_number = 2.14

[[record]]
item_sequence = "CACTTGGCATGGACCGGTTTTCCCGGTAATCCGTATTTGGA (site TACTTGGCTTC)"
metric_name = "recombinant UMI read abundance (log10)"
readout_number = 0.275

[[record]]
item_sequence = "CCACAGTCATGGACCGGTTTTCCCGGTAATCCGTATTTGTG (site CCACAGTCTCA)"
metric_name = "recombinant UMI read abundance (log10)"
readout_number = 1.93

[[record]]
item_sequence = "CGGTAGCCATGGACCGGTTTTCCCGGTAATCCGTATTTGTT (site CGGAATCCTAA)"
metric_name = "recombinant UMI read abundance (log10)"
readout_number = 0.00596

[[record]]
item_sequence = "GTTATAACATGGACCGGTTTTCCCGGTAATCCGTATTTGGC (site GTTACAACTGC)"
metric_name = "recombinant UMI read abundance (log10)"
readout_number = 0

[[record]]
item_sequence = "CACTTGTCATGGACCGGTTTTCCCGGTAATCCGTATTTGGA (site CACTTGACTTC)"
metric_name = "recombinant UMI read abundance (log10)"
readout_number = 0.0147

[[record]]
item_sequence = "TAGTAACCATGGACCGGTTTTCCCGGTAATCCGTATTTGAG (site TAGTAACCTCT)"
metric_name = "recombinant UMI read abundance (log10)"
readout_number = 0.00753

[[record]]
item_sequence = "GTTGCGTCATGGACCGGTTTTCCCGGTAATCCGTATTTGGT (site GTTGCGTCTAC)"
metric_name = "recombinant UMI read abundance (log10)"
readout_number = 0.923

[[record]]
item_sequence = "AGCACTACATGGACCGGTTTTCCCGGTAATCCGTATTTGAC (site AGGACTACTGT)"
metric_name = "recombinant UMI read abundance (log10)"
readout_number = 0.927

[[record]]
item_sequence = "GGCCACTCATGGACCGGTTTTCCCGGTAATCCGTATTTGTT (site GGCCACCCTAA)"
metric_name = "recombinant UMI read abundance (log10)"
readout_number = 0.00888

[[record]]
item_sequence = "AGCGTTTCATGGACCGGTTTTCCCGGTAATCCGTATTTGAC (site AGCTTTTCTGT)"
metric_name = "recombinant UMI read abundance (log10)"
readout_number = 0.136

[[record]]
item_sequence = "GGATAGTCATGGACCGGTTTTCCCGGTAATCCGTATTTGCC (site GGATAGTCTGG)"
metric_name = "recombinant UMI read abundance (log10)"
readout_number = 2.79

[[record]]
item_sequence = "GTAGATACATGGACCGGTTTTCCCGGTAATCCGTATTTGCC (site GTAGATACTGG)"
metric_name = "recombinant UMI read abundance (log10)"
readout_number = 0

[[record]]
item_sequence = "GTAGGTACATGGACCGGTTTTCCCGGTAATCCGTATTTGAC (site GTAGGAACTGT)"
metric_name = "recombinant UMI read abundance (log10)"
readout_number = 1.59

[[record]]
item_sequence = "ATGGGGTCATGGACCGGTTTTCCCGGTAATCCGTATTTGAC (site ATGGGGTCTGT)"
metric_name = "recombinant UMI read abundance (log10)"
readout_number = 3.47

[[record]]
item_sequence = "ACTAGTGCATGGACCGGTTTTCCCGGTAATCCGTATTTGGT (site CCTAGTGCTAC)"
metric_name = "recombinant UMI read abundance (log10)"
readout_number = 0.821

[[record]]
item_sequence = "AGTACGTCATGGACCGGTTTTCCCGGTAATCCGTATTTGTT (site GGTACGTCTAA)"
metric_name = "recombinant UMI read abundance (log10)"
readout_number = 0.198

[[record]]
item_sequence = "TCTTCTACATGGACCGGTTTTCCCGGTAATCCGTATTTGAC (site TCTTCTACTGT)"
metric_name = "recombinant UMI read abundance (log10)"
readout_number = 0

[[record]]
item_sequence = "TCTGCGGCATGGACCGGTTTTCCCGGTAATCCGTATTTGCT (site TATGCGGCTAG)"
metric_name = "recombinant UMI read abundance (log10)"
readout_number = 0.0269

[[record]]
item_sequence = "CAGACCGCATGGACCGGTTTTCCCGGTAATCCGTATTTGTC (site CAGACCGCTGA)"
metric_name = "recombinant UMI read abundance (log10)"
readout_number = 3.23

[[record]]
item_sequence = "CCGTTAGCATGGACCGGTTTTCCCGGTAATCCGTATTTGTG (site CCATTAGCTCA)"
metric_name = "recombinant UMI read abundance (log10)"
readout_number = 0.434

[[record]]
item_sequence = "CGTTTGACATGGACCGGTTTTCCCGGTAATCCGTATTTGAG (site CGTTAGACTCT)"
metric_name = "recombinant UMI read abundance (log10)"
readout_number = 0.00643


====

- experiment.notes: recombinant barcode read abundance after kanamycin selection (control-corrected) (log10(CPM+1)); higher = more efficient recombination; sequences stand for … in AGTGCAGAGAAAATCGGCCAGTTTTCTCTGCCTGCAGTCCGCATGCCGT…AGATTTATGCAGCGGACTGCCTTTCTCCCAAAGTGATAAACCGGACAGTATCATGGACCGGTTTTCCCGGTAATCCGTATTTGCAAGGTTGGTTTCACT; site = the 11-nt target
metric.name: recombinant barcode read abundance (log10)

[[record]]
item_sequence = "ATCTTAGCTTGGGTTCTAACCTGTTGCCT (site ATCTTACCTAG)"
readout_number = 0.141

[[record]]
item_sequence = "GTCACTACTTGGGTTCTAACCTGTTGCGT (site GTAACTACTCC)"
readout_number = 0.182

[[record]]
item_sequence = "ACATGTACTTGGGTTCTAACCTGTTGCAT (site ACATGGACTAT)"
readout_number = 0.121


====

- experiment.notes: recombinant barcode read abundance after kanamycin selection (control-corrected) (log10(CPM+1)); higher = more efficient recombination; sequences stand for … in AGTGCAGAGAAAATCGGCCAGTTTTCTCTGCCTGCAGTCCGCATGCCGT…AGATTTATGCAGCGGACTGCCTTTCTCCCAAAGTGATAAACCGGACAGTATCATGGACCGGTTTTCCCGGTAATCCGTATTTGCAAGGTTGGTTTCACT; site = the 11-nt target
Classify as follows. Reported recombinant barcode read abundance (log10) greater than or equal to 0.3: Met. Reported recombinant barcode read abundance (log10) below: Not met.

[[record]]
item_sequence = "ACTTGTACTTGGGTTCTAACCTGTTGCAT (site ACTTGGACTAT)"
label = "Not met"

[[record]]
item_sequence = "CACCACCCTTGGGTTCTAACCTGTTGCGG (site GGTACTTCTAA)"
label = "Met"

[[record]]
item_sequence = "TAGAAGACTTGGGTTCTAACCTGTTGCTC (site TAGAAGACTAA)"
label = "Not met"

[[record]]
item_sequence = "ATCATTCCTTGGGTTCTAACCTGTTGCCT (site ATCATTCCTAG)"
label = "Met"

[[record]]
item_sequence = "AAAGCTACTTGGGTTCTAACCTGTTGCTA (site TGGTAGTCTAC)"
label = "Not met"

[[record]]
item_sequence = "AATTGTCCTTGGGTTCTAACCTGTTGCGT (site AATTGTCCTAG)"
label = "Not met"

[[record]]
item_sequence = "TAGGTCCCTTGGGTTCTAACCTGTTGCAT (site TAGGTGCCTAT)"
label = "Not met"

[[record]]
item_sequence = "AGGAACCCTTGGGTTCTAACCTGTTGCTA (site AGGAACCCTAA)"
label = "Met"

[[record]]
item_sequence = "AAGCGTGCTTGGGTTCTAACCTGTTGCCT (site AAGCGTACTAG)"
label = "Met"

[[record]]
item_sequence = "CTATAGACTTGGGTTCTAACCTGTTGCCA (site CTATAGACTTG)"
label = "Not met"

[[record]]
item_sequence = "AGGTGTGCTTGGGTTCTAACCTGTTGCCT (site AGGTCTGCTAG)"
label = "Not met"

[[record]]
item_sequence = "GGGTCCTCTTGGGTTCTAACCTGTTGCCG (site GGGTCCTCTTG)"
label = "Not met"

[[record]]
item_sequence = "AGCATTCCTTGGGTTCTAACCTGTTGCCT (site AGCATTCCTAG)"
label = "Met"

[[record]]
item_sequence = "GTAACCTCTTGGGTTCTAACCTGTTGCCC (site GTAACCTCTGG)"
label = "Met"

